Data credit: PubChem BioAssay AID1996

- settings: buffer; pH 7.4; 200.0 µM
Tick Satisfied if solubility kinetic is 10 µg/mL or greater. Tick Not satisfied if solubility kinetic is less than 10 µg/mL.

Exam item: decide whether the reported solubility kinetic for Cc1ccc2oc(=O)n(CCOc3ccccc3)c2c1 is at least 10 µg/mL.
Satisfied

Threshold query (solubility kinetic >= 10 µg/mL) on Cc1cc(C)c(C#N)c(OCC(=O)Nc2ccccc2)n1
Satisfied

Given the entry Cc1ccc([N+](=O)[O-])c(OCCCN2C(=O)NC(C)(C)C2=O)c1 , answer whether its solubility kinetic meets or surpasses 10 µg/mL.
Satisfied

Identify whether the reported solubility kinetic of the following compound is 10 µg/mL or greater: S=C(NCCc1c[nH]c2ccccc12)NC1CCCCC1
Not satisfied

Entry COC(=O)c1ccccc1-c1cn(C)c2ccccc2c1=O : is its solubility kinetic no less than 10 µg/mL?
Satisfied

Exam item: decide whether the reported solubility kinetic for Cc1ccc(Nc2cc(C)nc(-c3ccccc3)n2)cc1 is at least 10 µg/mL.
Not satisfied

Kindly determine if solubility kinetic recorded for O=C(O)CSc1nc2ccc(C(=O)c3ccccc3)cc2[nH]1 is above or exactly 10 µg/mL.
Satisfied

Check if solubility kinetic >= 10 µg/mL (inclusive). Item: COc1ccc(C2C(C(C)=O)=C(C)Nc3ncnn32)c(OC)c1OC (stereo not given)
Satisfied

Has Cc1ccc(NC(=O)C2CC2c2ccccc2)cc1 (stereo not given) a recorded solubility kinetic greater than or equal to 10 µg/mL?
Not satisfied

Please tell me: is the compound CN(CC(=O)Nc1c(F)cccc1F)Cc1cccs1 at or over 10 µg/mL in terms of solubility kinetic?
Satisfied

Record CSc1cccc(NC(=O)CC2Oc3ccccc3NC2=O)c1 (stereo not given) ; criterion: solubility kinetic no lower than 10 µg/mL. Met?
Not satisfied

// inclusive: solubility kinetic at least 10 µg/mL? input: COCC(=O)Nc1cc(Cl)ccc1C
Satisfied

Form field: solubility kinetic at least 10 µg/mL? Entry: Cc1ccc(-c2sc(-c3cccnc3)nc2CC(=O)O)cc1
Satisfied

Assess whether reported solubility kinetic for Cc1cc(C)c2c(CC(=O)O)c(C)[nH]c2c1 sits at 10 µg/mL or higher.
Satisfied

Dear colleague, could you confirm whether CCc1cccc(CC)c1C(OC(C)=O)c1cccnc1 (stereo not given) has solubility kinetic at or above 10 µg/mL?
Satisfied

Please indicate if the recorded solubility kinetic for O=C(COC(=O)c1cncc(Br)c1)NCc1cccs1 meets or exceeds 10 µg/mL.
Satisfied

Evaluate O=[N+]([O-])c1ccc(-c2ccc(S(=O)(=O)N3CCOCC3)cc2)cc1 : solubility kinetic at minimum 10 µg/mL?
Not satisfied

Does the reported solubility kinetic for O=C(COC(=O)/C=C/c1ccccc1[N+](=O)[O-])NCc1ccco1 fall at or above the 10 µg/mL mark?
Satisfied

Reported solubility kinetic at or above 10 µg/mL? O=C(CCC1CCCC1)NCCCNC(=O)CCC1CCCC1
Satisfied

# check: solubility kinetic of COc1ccc(-c2cnc(N)n2C)cc1 is greater than or equal to 10 µg/mL
Satisfied

Dear colleague, could you confirm whether CCCCN(C/C=C/c1ccccc1OC)Cc1ccccc1 has solubility kinetic at or above 10 µg/mL?
Not satisfied

Record O=C(CN1C(=O)c2ccccc2S1(=O)=O)Nc1cccc(S(=O)(=O)N2CCOCC2)c1 ; criterion: solubility kinetic no lower than 10 µg/mL. Met?
Satisfied

Exam item: decide whether the reported solubility kinetic for Cl.ClC(CCN1CCN(Cc2ccccc2)CC1)c1ccccc1 (stereo not given) is at least 10 µg/mL.
Satisfied

For this compound, is measured solubility kinetic 10 µg/mL or higher? Cl.NC1(C(=O)O)CC1
Satisfied

Quick check, solubility kinetic >= 10 µg/mL? COc1ccc(CCC(=O)Nc2ncc(C)s2)cc1OC
Not satisfied

----------
- settings: buffer; pH 7.4; 200.0 µM
measurement.name: log10 solubility kinetic (log10 of the value in µg/mL)
In our notation, the value equals log10 of solubility kinetic in µg/mL.

Return log10 solubility kinetic for the following compound: Cn1c2c(c(=O)n(C)c1=O)C(c1cccc(F)c1)C(C#N)=C(N)O2 (configuration not stated)
1.66

Item N#C/C(=C\c1cccnc1)C(=O)Nc1ccc(SC(F)F)cc1 : provide log10 solubility kinetic
0.90

Give reported log10 solubility kinetic value for CCOc1ccc(Cl)cc1S(=O)(=O)NC1CCCC1
1.59

Let me know recorded log10 solubility kinetic for CC(C)(C)c1cc(CN(CCO)CCO)c(O)c(C(C)(C)C)c1 , thanks.
1.59

Consider the compound O=C1CSC(c2cccc([N+](=O)[O-])c2)N1c1ccccc1 (configuration not stated) . State its measured log10 solubility kinetic.
1.62

Item O=C(Cn1c(=O)oc2ccccc21)Nc1cccc(Cl)c1 : provide log10 solubility kinetic
0.32

Kindly indicate its recorded log10 solubility kinetic. Item: COc1ccc(NC(=O)COC(=O)CCc2nc3ccccc3c(=O)[nH]2)cc1Cl
1.78

----------
- settings: buffer; pH 7.4; 200.0 µM
measurement.name: log10 of solubility kinetic (log10 of the value in µg/mL)
Scale: log10; quantity: solubility kinetic; unit before log: µg/mL

Fill in log10 of solubility kinetic for record CCCN(Cc1cc(=O)[nH]c2ccccc12)C(=O)CC
1.59

// Input: S=c1[nH]c2ccccc2n1CCOc1ccccc1 . Output its log10 of solubility kinetic only.
1.31

Answer with the recorded log10 of solubility kinetic of Cc1noc(C)c1COC(=O)c1ccc(N(C)C)cc1 only.
0.20

Give recorded log10 of solubility kinetic. CCOC(=O)C(O)C1CCc2c([nH]c3ccc(C)cc23)C1=O (stereo not given)
1.35

Note log10 of solubility kinetic for the compound shown: O=C(O)/C=C\C(=O)Nc1ccc(OC(F)F)cc1
1.55

For the compound Cc1cccc(-n2c(C)cc(C(=S)N3CCOCC3)c2C)c1C , report log10 of solubility kinetic.
1.45

Fill in reported log10 of solubility kinetic for this entry: O=[N+]([O-])c1ccc(N2CCN(c3ccccc3Cl)CC2)cn1
0.30

Supply log10 of solubility kinetic value. Item: Cc1ccc2nc(NCC(N)=O)nc(-c3ccccc3)c2c1
0.15

# return recorded log10 of solubility kinetic for input O=C(/C=C/c1cccc(Cl)c1)NCc1ccccc1
0.53

Please give the documented log10 of solubility kinetic of O=S(=O)(c1ccccc1)N1CCNCC1
1.42

Provide log10 of solubility kinetic value for the following compound: O=c1[nH]c(SCc2ccc(Cl)cc2)nc2ccccc12
-0.10

Return log10 of solubility kinetic (reported value) for this compound: CC(C)CCNC(=O)COc1ccc(C(=O)c2ccccc2)cc1
1.13

Complete the entry with log10 of solubility kinetic for Cc1cc(NC(=O)c2ccc(-c3ccccc3[N+](=O)[O-])o2)no1
0.83

----------
- settings: buffer; pH 7.4; 200.0 µM
Param threshold (10 µg/mL) applies to solubility kinetic; output 1 when value >= threshold, -1 when value < threshold.

Decide: solubility kinetic of CCc1cccc(OCC2Cn3c(nc4c3c(=O)n(C)c(=O)n4C)O2)c1 (stereo unspecified) >= 10 µg/mL?
1

Is the recorded value of solubility kinetic equal to or greater than 10 µg/mL for this compound? CC(=O)Nc1ccc(Oc2ccc3c(c2)C(=O)NC3=O)cc1
1

solubility kinetic >= 10 µg/mL for COc1cc(OC)nc(Oc2cccc(Cl)c2C)n1 ?
-1

# check: solubility kinetic of O=C(NC1CCCCC1)c1cc(-c2cccc(Cl)c2)on1 is greater than or equal to 10 µg/mL
-1

Threshold query (solubility kinetic >= 10 µg/mL) on CC(C)n1c(NCc2ccccc2O)nc2ccccc21
1

----------
Please go through the items and note down their solubility kinetic.
- settings: buffer; pH 7.4; 200.0 µM

Supply reported solubility kinetic belonging to this compound: Cc1cc(C(=O)COc2cc(F)ccc2[N+](=O)[O-])c(C)n1C1CC1
3.3 µg/mL

Consider the compound CCOc1ccc(Nc2ncnc3ccc([N+](=O)[O-])cc23)cc1 . State its measured solubility kinetic.
4.1 µg/mL

Look up solubility kinetic of Oc1ccc2ccccc2c1C=NC12CN3CCN(CN(C3)C1)C2 and report it.
46.5 µg/mL

Specify solubility kinetic for COc1c(S(=O)(=O)N2CCN(C)CC2)ccc(Cl)c1Cl and stop.
45.6 µg/mL

Specify reported solubility kinetic for the compound shown: COc1ccccc1C(=O)NC(C)c1cccc2ccccc12 (centres undefined)
18.7 µg/mL

Specify measured solubility kinetic for Cc1coc2cc3oc(=O)c(CCC(=O)NCc4ccccn4)c(C)c3cc12 .
3.4 µg/mL

Report solubility kinetic, nothing else, for this compound: Cc1ccc(N2CCCC2=O)cc1S(=O)(=O)N1CCOCC1
> 48.7 µg/mL

Specify solubility kinetic for O=C(NCc1csc(-c2cccs2)n1)C1CC1 and stop.
34.3 µg/mL

Annotate the compound COc1ccc(OC(C)C(=O)NC2CCCCCC2)cc1 (centres undefined) with its measured solubility kinetic.
40 µg/mL

Report measured solubility kinetic; entry is O=C(CNC(=O)c1ccco1)OCC(=O)c1ccc([N+](=O)[O-])cc1
> 49.8 µg/mL

Input CCCn1c(=O)c(C(=O)Nc2cccc(C)c2)c(O)c2ccccc21 , output reported solubility kinetic.
< 0.4 µg/mL

Report solubility kinetic, nothing else, for this compound: O=C(O)c1ccccc1-c1ccccc1C(=O)Nc1cccc(Br)c1
53.6 µg/mL

Consider the compound CC(C)CCNC(=O)C(=O)Nc1ccccc1 . State its measured solubility kinetic.
2.6 µg/mL

Read off the recorded solubility kinetic for Cc1cc(NC(=O)COC(=O)/C=C/c2ccc(C)o2)no1
1.8 µg/mL

Input C#CCOc1ccc2ccccc2c1/C=C(/C#N)c1ccc(C(=O)O)cc1 , output reported solubility kinetic.
53 µg/mL

Name the recorded solubility kinetic of the compound listed here: CC1(C)CC(NC(=O)c2ccc(Br)o2)CC(C)(C)N1
> 49.4 µg/mL

Determine its reported solubility kinetic: COc1ccc(S(=O)(=O)n2c([N+](=O)[O-])cnc2C)c(C)c1C
45.2 µg/mL

Supply reported solubility kinetic belonging to this compound: CCCCCOc1ccc(C(=O)CCC(=O)N2CCCC2)cc1
> 47.6 µg/mL

Look up solubility kinetic of Cn1c(C2CCCCC2)nc2ccccc21 and report it.
> 32.1 µg/mL

Give a short answer stating reported solubility kinetic for N#Cc1cccc(CSc2ncnc(N)n2)c1 .
> 36.5 µg/mL

For the compound O=[N+]([O-])c1ccccc1-c1ccc(C(=S)N2CCCCC2)o1 , give its reported solubility kinetic.
11.8 µg/mL

Give the reported value of solubility kinetic for this record: CC(C)CC1CCCCC1OC(=O)CN1CCCCC1 (centres undefined)
3.7 µg/mL

Identify solubility kinetic associated with the compound Cc1ccc(C(=O)/C=C/c2ccc3ncccc3c2)cc1
1 µg/mL

Respond only with solubility kinetic recorded for COc1ccc(C(=O)Nc2ccc3ccccc3c2)c(OC)c1
< 0.7 µg/mL

Note solubility kinetic for the compound shown: Cc1cccc(-c2noc(-c3ccno3)n2)c1
4.8 µg/mL

Supply measured solubility kinetic of Cc1ccc(NC(=O)c2cccnc2)c([N+](=O)[O-])c1 in your reply.
> 38.6 µg/mL

Look up solubility kinetic of COc1ccc2nc(Cl)cc(Cl)c2c1 and report it.
0.9 µg/mL

Answer with the recorded solubility kinetic for the compound listed here: O=C(CSc1ccccn1)Nc1ccc(F)c([N+](=O)[O-])c1
43.5 µg/mL

Determine from records and report solubility kinetic for O=C(CSc1nncn1-c1ccccc1)NC1CCCC1
> 45.4 µg/mL

State its solubility kinetic: COC(=O)c1cc(-c2cccc(OC)c2)c2c(=O)[nH]c(=O)n(C)c2n1
3.4 µg/mL

// fetch solubility kinetic given entry O=C(Cc1ccccc1)c1c[nH]c(C(=O)NCCCn2ccnc2)c1
> 50.5 µg/mL

Report measured solubility kinetic; entry is CCC1CCC2(CC1)NC(=O)N(CC(=O)N1CCc3ccccc31)C2=O (centres undefined)
3.4 µg/mL

For the compound COc1ccccc1NC(=O)c1cc[n+]([O-])cc1 , report solubility kinetic.
> 36.6 µg/mL

Specify solubility kinetic for COc1ccc(OC)c(S(=O)(=O)n2ccnc2C(C)C)c1 and stop.
46.1 µg/mL

Give the reported value of solubility kinetic for this record: CCOc1ccc2oc(C(=O)OCC(=O)NC(=O)NC)c(C)c2c1
1.9 µg/mL

Please report the measured solubility kinetic for COCCNC(=S)N1CCN(C/C=C/c2ccccc2)CC1
> 47.9 µg/mL

Report solubility kinetic for COc1cc(OC)c(C(=O)Nc2ccc3ccccc3c2)cc1OC
< 0.7 µg/mL

Could you please provide reported solubility kinetic for O=C(Cc1cccc2ccccc12)Nc1ccc(O)cc1C(=O)O ? Thanks!
> 48.2 µg/mL

Look up and report measured solubility kinetic for this entry: COc1ccc(C(O)c2ncc(C(F)(F)F)cc2Cl)cc1 (centres undefined)
> 47.7 µg/mL

Answer with the recorded solubility kinetic of COc1ccc(OCC(O)CNC(=O)Nc2cc(F)ccc2C)cc1 (centres undefined) only.
17.2 µg/mL

Give solubility kinetic for the following compound: O=C(N/N=C/c1ccncc1)NC1CCCCC1
> 36.9 µg/mL

Answer with reported solubility kinetic of Cc1cccc(NC(=O)C(=O)NCc2ccc3c(c2)OCO3)c1C
2 µg/mL

For O=C(Oc1c(-c2ccccc2)c(=O)n2c3c(cccc13)CC2)c1cccc([N+](=O)[O-])c1 , write its solubility kinetic.
5.2 µg/mL

Return value of solubility kinetic for input COc1ccc(C(=O)Nc2cccc3c2CCCC3)cc1 , no commentary.
< 0.6 µg/mL

Quick one: give measured solubility kinetic for COC(=O)c1ccc(NC(=S)N2CCCC2)cc1
> 39.7 µg/mL

Answer with reported solubility kinetic of CC1CCc2c(sc(NC(=O)/C=C/c3cccs3)c2C(=O)O)C1 (centres undefined)
> 52.1 µg/mL

For the compound CN(C(=O)COC(=O)c1ccc[nH]c1=O)C1CCCCC1 , report solubility kinetic.
> 43.9 µg/mL

Tell us which solubility kinetic value is on record for COc1cc(OC)cc(C(=O)NCc2ccc3c(c2)OCO3)c1
46.1 µg/mL

Tell us which solubility kinetic value is on record for Cn1c(=O)c2c(ncn2CCO)n(C)c1=O
> 33.6 µg/mL
